- assay_text: inhibitors of poly I:C-induced TLR3 signaling, primary screen, cell-based, poly I:C stimulus, luciferase, 10K MLSCN set (AID 602277)
- protocol_conditions: HEK293-TLR3 RL24 IRF3 luciferase reporter, at 10 µM, active compounds read high
Response key: y means inhibition >= 20%; n means inhibition < 20%.

Reference set, count: 5
C(=N\c1c(-c2ccccc2)nc2n1CCS2)/c1ccccc1 | n
O=C(CSc1ncccn1)NCc1ccccc1 | n
Cc1cc(C(=O)COC(=O)C2COc3ccccc3O2)c(C)n1CC1CCCO1 (stereo unspecified) | y
Cn1c(=O)c2[nH]c(NCC3CCCO3)nc2n(-c2ccccc2)c1=O (stereo unspecified) | y
COC(=O)c1ccccc1NC(=O)C1CC=CCC1C(=O)O (stereo unspecified) | y

From here, focus on the item given below.
Form field: inhibition at least 20%? Entry: COc1ccc(C2C(C(=O)c3sc(C)nc3C)=C(O)C(=O)N2CCN(C)C)cc1OC (stereo unspecified) n
